This section presents compounds with their documented melting point values.
Reply numerically in °C, unit not repeated.

Here is how some compounds turned out for melting point.
compound="CCCCCCCCCCCC1OCC2O[C@@H](OC)C(O)C(O)[C@@H]2O1 (some centres unmarked) [Compound 1f]" observed_value=84
compound="CCCCCCCCCC1OCC2O[C@H](OC)C(O)C(O)[C@@H]2O1 (some centres unmarked) [Compound 1d]" observed_value=72
compound="CCCCCCCCCCCC1OCC2O[C@H](OC)C(O)C(O)[C@H]2O1 (some centres unmarked) [Compound 1h]" observed_value=115

Task: Reported melting point, compound CCCCCCCCCCCC1OCC2O[C@H](OC)C(O)C(O)[C@@H]2O1 (some centres unmarked) [Compound 1g] : ____
Result: 104

Task: One more compound: CCCCCCCCCCCC1OCC2O[C@H](OC)C(O)C(O)[C@@H]2O1 (some centres unmarked) [Compound 1e]
Result: 69
